# inhibition annotations
- ASSAY NAME: inhibitors of PAF-induced NFkB signaling in CF airway cells, dose response, cell-based, uHTS hits, panel, cytotoxicity readout (AID 624344)
- ASSAY SETUP: CF bronchial epithelial cells, PAF-induced NFkB reporter inhibition, with PAF, run 2; at 79 µM (top of the series)
Lab book: enter the figure in %, no units written.

COMPOUND: C[C@@H]1C[C@@H]([C@H](O)CC2CC(=O)NC(=O)C2)C(=O)[C@@H](C)C1
inhibition, %: 116

COMPOUND: NC(=O)c1c(Br)n(C2OC(CO)C(O)C2O)c2ncnc(N)c12 (stereo unspecified)
inhibition, %: 116

COMPOUND: NC(=Nc1ccccc1)NN=Cc1c[nH]c2ccccc12
inhibition, %: 116

Read the entry "C[C@H]1C[C@@H](C)C(=O)[C@@H]([C@H](O)CC2CC(=O)NC(=O)C2)C1" and write its reported inhibition.
113

Read the entry O=c1[nH]c2ccccc2n1C1CCN(C(c2cccc3ccccc23)c2nnnn2Cc2ccccc2)CC1 (stereo unspecified) and write its reported inhibition.
101

Read the entry "C[C@H]1CCCC(=O)CCC/C=C/c2cc(O)cc(O)c2C(=O)O1" and write its reported inhibition.
114

Value source: PubChem BioAssay
